Every entry's value here was drawn from patent US11155560B2.

System tested: CDK9/cyclin T1 (Homo sapiens, UniProt P50750)
Sequence (P50750 whole entry): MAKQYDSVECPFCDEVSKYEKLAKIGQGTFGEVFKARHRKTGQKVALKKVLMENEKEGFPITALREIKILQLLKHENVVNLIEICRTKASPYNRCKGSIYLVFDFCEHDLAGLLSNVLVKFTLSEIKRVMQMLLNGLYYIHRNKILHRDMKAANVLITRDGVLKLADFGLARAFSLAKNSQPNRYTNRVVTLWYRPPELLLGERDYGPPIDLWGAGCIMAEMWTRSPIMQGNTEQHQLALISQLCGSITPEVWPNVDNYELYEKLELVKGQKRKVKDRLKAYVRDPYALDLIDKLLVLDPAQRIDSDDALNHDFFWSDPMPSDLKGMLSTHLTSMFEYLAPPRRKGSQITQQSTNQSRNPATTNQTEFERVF
Sequence (O60563 whole entry partner): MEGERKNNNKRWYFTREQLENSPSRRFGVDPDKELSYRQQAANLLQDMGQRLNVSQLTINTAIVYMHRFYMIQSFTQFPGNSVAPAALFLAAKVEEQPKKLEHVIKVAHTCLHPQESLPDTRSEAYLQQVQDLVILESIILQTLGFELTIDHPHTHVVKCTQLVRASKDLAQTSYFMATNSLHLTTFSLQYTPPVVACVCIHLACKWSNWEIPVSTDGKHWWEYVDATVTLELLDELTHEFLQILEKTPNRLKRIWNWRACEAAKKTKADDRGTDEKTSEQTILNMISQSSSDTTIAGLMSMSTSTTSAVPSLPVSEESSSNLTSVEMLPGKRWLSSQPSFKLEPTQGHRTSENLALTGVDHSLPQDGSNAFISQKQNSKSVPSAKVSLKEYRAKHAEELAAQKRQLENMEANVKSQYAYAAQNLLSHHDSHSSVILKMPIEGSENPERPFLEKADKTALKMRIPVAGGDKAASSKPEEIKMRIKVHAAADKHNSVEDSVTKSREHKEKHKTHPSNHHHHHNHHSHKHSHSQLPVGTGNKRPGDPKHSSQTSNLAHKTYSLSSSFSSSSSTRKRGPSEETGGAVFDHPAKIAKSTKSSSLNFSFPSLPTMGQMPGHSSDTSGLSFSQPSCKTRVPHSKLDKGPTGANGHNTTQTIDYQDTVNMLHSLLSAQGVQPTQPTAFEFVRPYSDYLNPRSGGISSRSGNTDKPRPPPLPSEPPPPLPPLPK
Experiment: CDK9/cyclin T1 kinase inhibition, LANCE assay
Assay type: biochemical
Condition notes: reaction time 60 minutes, 10 μM ATP, 10-dose IC50, compounds 35-126 (127-208 listed, method not stated), read-out: CDK9/cyclin T1 Potency Grade
Assay endpoint: IC50

Examples with their reported IC50 follow.
# Compound, System tested, IC50
measured = [
    ("CC(C)(C#N)c1ccc(-c2cc(N[C@H]3CC[C@H](N)C3)n3nccc3n2)cc1 [Compound 204]", "CDK9/cyclin T1 (Homo sapiens, UniProt P50750)", "1 to 500 nM"),
    ("CCN(CC)c1cc(N[C@H]2CC[C@H](N)C2)n2nccc2n1 [Compound 170]", "CDK9/cyclin T1 (Homo sapiens, UniProt P50750)", "1 to 500 nM"),
    ("Cc1cccc(-c2cc(N[C@H]3CC[C@H](N)C3)n3nccc3n2)c1", "CDK9/cyclin T1 (Homo sapiens, UniProt P50750)", "1 to 500 nM"),
]

Below: the item to evaluate.
Problem: # input compound: Cc1cnn2c(N[C@@H]3CC[C@@H](NC(=O)OCc4ccccc4)C3)cc(C(C)C)nc12 [Compound 178] ; wanted: its IC50
Result: 1 to 500 nM
